target: CYP 2C19 (Homo sapiens (Human)); test: CYP inhibition assay (P450-Glo); format: in vitro ADME; settings: recombinant CYP
Sequence (P33261 whole entry): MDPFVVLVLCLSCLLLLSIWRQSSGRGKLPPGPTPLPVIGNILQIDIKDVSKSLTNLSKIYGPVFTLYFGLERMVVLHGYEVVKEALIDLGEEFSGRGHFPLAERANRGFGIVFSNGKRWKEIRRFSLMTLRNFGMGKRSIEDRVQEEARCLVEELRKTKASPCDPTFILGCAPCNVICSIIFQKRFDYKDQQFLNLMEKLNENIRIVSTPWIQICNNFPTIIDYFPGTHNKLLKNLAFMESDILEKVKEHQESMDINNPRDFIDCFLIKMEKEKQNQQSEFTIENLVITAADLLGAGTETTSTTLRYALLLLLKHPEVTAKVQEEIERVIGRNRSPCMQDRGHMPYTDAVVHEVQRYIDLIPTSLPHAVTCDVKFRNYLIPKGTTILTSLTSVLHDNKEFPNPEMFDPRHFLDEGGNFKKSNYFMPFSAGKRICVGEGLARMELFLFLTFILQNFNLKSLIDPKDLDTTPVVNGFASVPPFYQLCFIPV
Quantity Measured: IC50

> print(dat)
                         structure.notation  quantity.measured  meas.value
1  CNc1nc2ccccc2n1-c1nc2c(c(C(C)(C)S(C)(=O)=O)n1)OC[C@@H]1COCCN21               IC50     > 50 µM

Turning to the following compound.
Request the reported IC50 associated with "CS(=O)(=O)C1(c2nc(-c3cccc4[nH]ccc34)nc3c2OC[C@@H]2COCCN32)CCOCC1"
> 50 µM

###

pEC50 overview
target: ATR (Homo sapiens (Human), UniProt Q13535); assay: Cellular ATR inhibition, western blot of CHK1(S345) phosphorylation in hydroxyurea treated cells; format: cell-based; settings: HT29 cells, hydroxyurea 2.5 mM
Sequence (Q13535 whole entry): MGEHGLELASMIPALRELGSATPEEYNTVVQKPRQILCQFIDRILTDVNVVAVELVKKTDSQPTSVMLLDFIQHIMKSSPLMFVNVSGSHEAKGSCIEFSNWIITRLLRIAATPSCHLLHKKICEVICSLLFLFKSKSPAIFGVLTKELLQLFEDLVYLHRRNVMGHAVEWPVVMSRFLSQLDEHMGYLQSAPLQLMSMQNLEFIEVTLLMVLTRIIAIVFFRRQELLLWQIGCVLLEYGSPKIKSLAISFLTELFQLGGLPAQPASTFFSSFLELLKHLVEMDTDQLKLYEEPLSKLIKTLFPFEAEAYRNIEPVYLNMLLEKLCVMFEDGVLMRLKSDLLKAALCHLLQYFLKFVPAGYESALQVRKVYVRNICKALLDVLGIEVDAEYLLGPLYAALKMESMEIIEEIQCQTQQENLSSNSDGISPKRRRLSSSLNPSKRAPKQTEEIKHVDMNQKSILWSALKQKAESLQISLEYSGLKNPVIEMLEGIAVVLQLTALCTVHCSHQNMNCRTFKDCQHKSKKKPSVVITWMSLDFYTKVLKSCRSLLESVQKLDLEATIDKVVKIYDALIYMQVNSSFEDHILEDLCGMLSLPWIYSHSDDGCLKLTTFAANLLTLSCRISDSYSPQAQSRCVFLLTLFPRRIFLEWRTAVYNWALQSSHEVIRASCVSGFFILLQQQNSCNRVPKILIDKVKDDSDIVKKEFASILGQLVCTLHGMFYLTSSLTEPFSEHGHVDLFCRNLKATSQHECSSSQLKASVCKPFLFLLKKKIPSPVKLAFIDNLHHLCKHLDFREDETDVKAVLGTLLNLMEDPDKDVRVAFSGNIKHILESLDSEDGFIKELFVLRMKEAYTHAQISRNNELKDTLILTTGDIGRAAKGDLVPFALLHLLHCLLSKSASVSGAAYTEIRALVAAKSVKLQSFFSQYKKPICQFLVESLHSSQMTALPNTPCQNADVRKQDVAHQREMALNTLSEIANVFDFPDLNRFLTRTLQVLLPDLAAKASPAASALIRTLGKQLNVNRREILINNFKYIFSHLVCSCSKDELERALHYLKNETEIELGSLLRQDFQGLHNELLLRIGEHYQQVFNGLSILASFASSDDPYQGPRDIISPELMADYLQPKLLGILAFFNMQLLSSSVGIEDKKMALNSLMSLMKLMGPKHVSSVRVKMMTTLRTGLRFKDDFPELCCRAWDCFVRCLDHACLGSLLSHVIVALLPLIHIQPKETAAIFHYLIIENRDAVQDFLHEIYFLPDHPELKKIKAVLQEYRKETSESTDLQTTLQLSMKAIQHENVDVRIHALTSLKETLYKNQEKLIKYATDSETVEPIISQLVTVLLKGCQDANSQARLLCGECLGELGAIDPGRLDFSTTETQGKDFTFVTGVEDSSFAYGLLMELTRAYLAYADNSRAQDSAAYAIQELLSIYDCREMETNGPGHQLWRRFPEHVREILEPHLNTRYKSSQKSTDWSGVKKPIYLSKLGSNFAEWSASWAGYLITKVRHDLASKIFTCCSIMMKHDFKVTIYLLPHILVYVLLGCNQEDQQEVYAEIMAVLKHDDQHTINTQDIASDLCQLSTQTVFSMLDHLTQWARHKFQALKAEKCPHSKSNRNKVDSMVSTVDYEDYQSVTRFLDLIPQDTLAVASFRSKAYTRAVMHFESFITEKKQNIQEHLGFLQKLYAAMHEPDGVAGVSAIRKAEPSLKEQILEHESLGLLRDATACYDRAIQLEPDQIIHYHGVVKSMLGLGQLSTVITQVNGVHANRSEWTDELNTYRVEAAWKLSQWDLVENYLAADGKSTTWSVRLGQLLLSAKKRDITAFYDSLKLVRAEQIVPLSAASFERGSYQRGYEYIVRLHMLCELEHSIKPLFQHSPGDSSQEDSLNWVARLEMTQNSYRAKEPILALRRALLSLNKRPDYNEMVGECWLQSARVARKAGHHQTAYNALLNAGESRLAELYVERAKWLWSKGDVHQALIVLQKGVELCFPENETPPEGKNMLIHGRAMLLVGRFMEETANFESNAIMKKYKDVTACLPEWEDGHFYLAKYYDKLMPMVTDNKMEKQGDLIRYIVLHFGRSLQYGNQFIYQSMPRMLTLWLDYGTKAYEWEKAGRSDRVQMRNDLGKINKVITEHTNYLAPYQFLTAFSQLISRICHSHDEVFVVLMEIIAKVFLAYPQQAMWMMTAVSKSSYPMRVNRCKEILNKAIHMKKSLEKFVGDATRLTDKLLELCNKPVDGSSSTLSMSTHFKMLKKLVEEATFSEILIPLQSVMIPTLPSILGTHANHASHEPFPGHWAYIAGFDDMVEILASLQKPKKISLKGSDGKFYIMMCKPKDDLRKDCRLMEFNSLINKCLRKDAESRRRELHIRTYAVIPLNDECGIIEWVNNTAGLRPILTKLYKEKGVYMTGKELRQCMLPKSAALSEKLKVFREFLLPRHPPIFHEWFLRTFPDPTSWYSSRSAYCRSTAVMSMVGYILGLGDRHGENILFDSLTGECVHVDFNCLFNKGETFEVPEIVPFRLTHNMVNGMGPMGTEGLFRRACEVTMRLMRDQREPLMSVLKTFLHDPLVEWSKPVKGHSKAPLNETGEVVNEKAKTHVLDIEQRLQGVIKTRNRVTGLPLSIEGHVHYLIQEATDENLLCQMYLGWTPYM
pEC50: −log10 of the molar value.

> print(dat)
                                   molecule                                    system    meas.value
1  CS(=O)(=O)C1(c2nc(-c3cc(C(F)(F)F)cc4[nH]ccc34)nc3c2OC[C@@H]2COCCN32)CCC1  ATR (Homo sapiens (Human), UniProt Q13535)  6.00 to 7.00

Bench note: what pEC50 did "CS(=O)(=O)C1(c2nc(-c3cc(C(F)(F)F)cc4[nH]ccc34)nc3c2OC[C@@H]2COCCN32)CCOCC1" show?
6.00 to 7.00
